Origin of the recorded values: paper PMC9482650

subject-of-test: PICK1, Q9NRD5
Sequence (Q9NRD5 17-115): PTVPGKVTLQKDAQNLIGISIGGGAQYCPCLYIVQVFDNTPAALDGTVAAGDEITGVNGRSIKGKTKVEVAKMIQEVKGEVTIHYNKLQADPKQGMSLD
test: holdup assay
Parameters: key: below the threshold = too weak to quantify, mostly under pKd 3.1 to 4
test-conditions: plain residues with an end cap or a label only (N-terminal biotin on a linker: ahx)
metric: pKd

Examples with answers:
For this binder ( QPRTWLQSPV [RTKN, Q9BST9] ), measured pKd is below the threshold

For this binder ( QDEKVKESYV [ABCA1, O95477] ), measured pKd is 3.76

For this binder ( QNTDDVQTSF [ACE2, Q9BYF1] ), measured pKd is below the threshold

For this binder ( TESNLQTSSC [CGN, Q9P2M7] ), measured pKd is below the threshold

For this binder ( HTHSYIETHV [CNKSR2, Q8WXI2] ), measured pKd is below the threshold

For this binder ( EKQAKGDTEF [CACYBP, Q9HB71] ), measured pKd is below the threshold

For this binder ( TQKFRASTAL [FRMPD1, Q5SYB0] ), measured pKd is below the threshold

For this binder ( TEAKLTETNA [MYO18A, Q92614] ), measured pKd is below the threshold

Let us move to another entry and its pKd.
For this binder ( APSRKLNTEI [TIAM1, Q13009] ), measured pKd is below the threshold
